B1: POU domain, class 2, transcription factor 3, residues 186 to 260; numbered along this chain, Q9UKI9 (parent)
chain: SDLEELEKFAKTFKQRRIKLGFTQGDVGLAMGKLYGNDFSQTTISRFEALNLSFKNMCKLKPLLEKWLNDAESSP

variants of: B1; assay: abundance fitness (aPCA) (normalised: wild type 0, dead -1); higher = more abundant; growth selection in yeast, the domain comes from the species named; conditions: Homo sapiens
Here the recorded abundance fitness is given for each entry.

| mutant | abundance fitness |
| --- | --- |
| K61I | -0.128 |
| L60A | -0.081 |
| L50Y | -0.077 |
| S53N | 0.03 |
| G21Q | -0.493 |
| F47K | -1.15 |
| W67M | -0.306 |
| K61Y | -0.108 |
| D70S | -0.063 |
| M57C | -0.166 |
| E72P | -0.269 |
